Measured % PHAKPA (F129L) Disease level P2 at 16 ppm accompanies every entry in the list below.
Test system: Phakopsora pachyrhizi (F129L)
ASSAY COMMENT: Protective control of soybean rust on soybeans (PHAKPA P2)
Type: in vivo
EXPERIMENTAL PARAMETERS: protective P2, 16 ppm, soybean rust F129L
OBSERVABLE: % PHAKPA (F129L) Disease level P2 at 16 ppm (%)

SMILES TEXT: CNC(=O)/C(=N/OC)c1cccc(C)c1CO/N=C(\C)c1ccc(OC(F)(F)F)cc1C(F)(F)F
RECORDED MEASUREMENT: 1
--
SMILES TEXT: CNC(=O)/C(=N/OC)c1cccc(C)c1CO/N=C(\C)c1cccc(C(C)C)c1
RECORDED MEASUREMENT: 1
--
SMILES TEXT: CC/C(=N\OCc1c(C)cccc1/C(=N\OC)C(=O)NC)c1ccccc1
RECORDED MEASUREMENT: 1

###

Test system: Phakopsora pachyrhizi (F129L)
ASSAY COMMENT: Protective control of soybean rust on soybeans (PHAKPA P2)
Assay type: in vivo
EXPERIMENTAL PARAMETERS: protective P2, 16 ppm, soybean rust F129L
Would you please tag the item Fulfilled when its % PHAKPA (F129L) Disease level P2 at 16 ppm is 80% or above, and Not fulfilled when it is below?

MOLECULE: CCc1ccccc1/C(C)=N/OCc1c(C)cccc1/C(=N\OC)C(=O)OC [compound 175]
ANSWER LABEL: Fulfilled
//
MOLECULE: CO/N=C(/C(=O)OC)c1cccc(C)c1CO/N=C(\C)c1ccc(Cc2ccccc2)cc1C(F)(F)F [compound 408]
ANSWER LABEL: Not fulfilled
//
MOLECULE: CO/N=C(/C(=O)OC)c1cccc(C)c1CO/N=C(\C)c1ccccc1C#N [compound 224]
ANSWER LABEL: Fulfilled
//
MOLECULE: CO/N=C(/C(=O)OC)c1cccc(C)c1CO/N=C(\C)c1cc(F)ccc1Br [compound 254]
ANSWER LABEL: Not fulfilled
//
MOLECULE: CO/N=C(/C(=O)OC)c1cccc(C)c1CO/N=C(\C)c1cccc(F)c1F [compound 177]
ANSWER LABEL: Not fulfilled
//
MOLECULE: CO/N=C(/C(=O)OC)c1cccc(C)c1CO/N=C(\C)c1ccccc1C(C)C [compound 218]
ANSWER LABEL: Fulfilled
//
MOLECULE: CNC(=O)/C(=N/OC)c1cccc(C)c1CO/N=C(\C)c1ccccc1Br [Ex. 120]
ANSWER LABEL: Not fulfilled
//
MOLECULE: CNC(=O)/C(=N/OC)c1cccc(C)c1CO/N=C(\C)c1cc(C2CC2)cc(C(F)(F)F)c1 [compound 150]
ANSWER LABEL: Not fulfilled

###

Test system: Phakopsora pachyrhizi (F129L)
ASSAY COMMENT: Protective control of soybean rust on soybeans (PHAKPA P6)
Assay type: in vivo
EXPERIMENTAL PARAMETERS: protective P6, 4 ppm, soybean rust F129L
OBSERVABLE: % PHAKPA (F129L) Disease level P6 at 4 ppm (%)

COMPOUND: CO/N=C(/C(=O)OC)c1cccc(C)c1CO/N=C(\C)c1c(C)cccc1F [compound 285]
RECORDED MEASUREMENT: 90

COMPOUND: CNC(=O)/C(=N/OC)c1cccc(C)c1CO/N=C(\C)c1cccc(C(F)F)c1 [Ex. 12]
RECORDED MEASUREMENT: 37

COMPOUND: CO/N=C(/C(=O)OC)c1cccc(C)c1CO/N=C(\C)c1cccc(F)c1F [compound 177]
RECORDED MEASUREMENT: 87

COMPOUND: CO/N=C(/C(=O)OC)c1cccc(C)c1CO/N=C(\C)c1ccc(OC(F)(F)F)cc1 [compound 133]
RECORDED MEASUREMENT: 2

COMPOUND: CNC(=O)/C(=N/OC)c1cccc(C)c1CO/N=C(\C)c1cccc(C2CC2)c1 [compound 299]
RECORDED MEASUREMENT: 53

COMPOUND: COC=C(C(=O)OC)c1cccc(C)c1CON=C(C)c1ccccc1C(F)(F)F [Ex. 244]
RECORDED MEASUREMENT: 15
